# Test system: UO-31 renal
# assay-overview: NCI tumour cell line growth inhibition, 48 h
reported-property: TGI (µM)
Output spec: scalar in µM, unitless text.

Reference set, count: 4
> print(dat)
                               entry.smiles  reported.property  units  observed.result
1  N#C/C(=C\c1c(-c2ccccc2)[nH]c2ccccc12)C(=O)c1ccc(Cl)cc1                TGI     µM             36.3
2  CC(=O)Oc1cc(OC(C)=O)c2c(=O)c3ccccc3n(C)c2c1                TGI     µM             53.8
3  COc1cc2c3c(n(C)c(=O)c2cc1OC)-c1cc2c(cc1/C3=C\CCCCN)OCO2                TGI     µM             13.5
4  COc1cc2cc(Oc3ccc(NC(=O)Nc4ccc(F)c(C(F)(F)F)c4)cc3)c(C)nc2cc1OCCN1CCCCC1                TGI     µM             2.73

Exercise: Give TGI for this entry on UO-31 renal: CC(C)(C)c1cc(C(=O)/C=C/c2ccc(O)c(O)c2O)cc(C(C)(C)C)c1O
Key: 13.9

Exercise: Name the recorded TGI of C/C(=N\NC(=S)Nc1ccc(C(=O)O)cc1)c1ccccn1 , assay system UO-31 renal.
Key: 39.8

Exercise: Supply TGI measured with UO-31 renal for O=C(c1cccs1)c1c(C(F)(F)F)n([O-])c2ccc(C(F)(F)F)cc2[n+]1=O .
Key: 0.318

Exercise: # return TGI for CCOC(=O)c1cnc(SCc2ccc(Cl)c(Cl)c2)nc1N1CC1 , test system: UO-31 renal
Key: 7.63

Exercise: State measured TGI of the compound O=[N+]([O-])c1ccc(N/N=C\c2cc(Cl)ccc2O)nc1 with UO-31 renal.
Key: 5.45

These data points were gathered from PubChem BioAssay (NCI).
